experimentalSystem: Luciferin 4-monooxygenase (Photinus pyralis) (UniProt P08659)
testProtocol: qHTS of Nrf2 Activators: Hit Validation in Secondary FLuc Assay; further: nearly all actives have a fitted effect of over 65% in size
assayConditions: firefly luciferase inhibition counter-screen, luminescence; series mostly up to 57.5 µM
In all, about 1,100 compounds went through this assay and about 390 (35%) were called active. Not shown: some 30% with an inconclusive outcome. The call rests on the fitted dose curve; in most records, active means well fitted inhibition curve with a large enough effect; inconclusive means small, poorly fitted or top-dose-only effect; inactive means flat fitted curve, though single readings scatter. The list shows a part of the results.
Choose the fitting class; nothing outside active, inactive is accepted.

Challenge: Status in this test for O=C(CN1CC(=O)Oc2ccccc21)OCC(=O)c1ccc(F)cc1 ?
Response given: inactive

Challenge: For COC(=O)c1sccc1NC(=O)c1cccc(Cl)c1 , what call appears in the results of this test?
Response given: inactive

Challenge: Could you check what this test reported for CCN1C(=O)/C(=C\c2ccco2)C(C(=O)OC)=C1C ?
Response given: inactive

Challenge: # lookup: test call for O=C(c1ccc(S(=O)(=O)Cc2ccccc2Cl)c([N+](=O)[O-])c1)N1CCOCC1
Response given: inactive

Challenge: # outcome recorded in this test, key = O=C(C=Cc1ccco1)c1ccc2ccccc2c1
Response given: active

Challenge: Each compound tested received a call. Report the one for O=C(Nc1ccccc1C(=O)N/N=C/c1ccco1)c1ccc(F)cc1 .
Response given: active

Challenge: Could you please tell me the result logged for O=C(N/N=C/c1cn[nH]c1-c1ccccc1)c1ccco1 in this assay?
Response given: inactive

Challenge: What did the test return for O=C(CCS(=O)(=O)c1ccccc1)Nc1nc2ccc(F)cc2s1 ?
Response given: inactive

Challenge: Just curious, what result did N#C/C(=C\C=C\c1ccccc1)C(=O)NCc1cccnc1 get here?
Response given: inactive

Challenge: // outcome(item) with item = Cc1ccc(-c2cc(-c3cccc(F)c3)n[nH]2)c(O)c1
Response given: active

Challenge: Given N/C(=N\OC(=O)c1cc(Cl)ccc1Cl)c1cccnc1 , state the outcome it received in this test.
Response given: active

Challenge: Per the assay record, what outcome was assigned to COc1cccc(NC(=O)c2cc(Cl)nnc2Cl)c1 ?
Response given: inactive

Challenge: Each compound tested received a call. Report the one for O=C(COC(=O)/C=C/c1ccco1)Nc1ccc(F)cc1Cl .
Response given: inactive

Challenge: Tell me the assay call for O=C(/C=C/c1ccco1)NCC(=O)N/N=C/c1ccc(Cl)cc1 please.
Response given: inactive

Challenge: Test call for this compound, please: COC(=O)c1ccc2nc(-c3cccc(Br)c3)c(CC3CCCCC3)n2c1
Response given: inactive

Challenge: Outcome logged for COC(=O)c1ccc2nc(-c3ccco3)c(Cc3cccc(Cl)c3)n2c1 in this assay:
Response given: active

Challenge: Dear colleague, could you share the recorded outcome for N/C(=N\OC(=O)c1cccc2ccccc12)c1cccnc1 when you have a moment?
Response given: inactive

Challenge: What outcome does the record of this test show for Cc1ccc(Cn2c(/C=C/c3ccco3)nc3ccccc32)cc1 ?
Response given: active

Challenge: Tell me the assay call for C(=Cc1cnnc2ccccc12)c1ccccc1 please.
Response given: active

Challenge: // return assay outcome for Oc1ccc(CNc2ccccc2O)cc1
Response given: active

Challenge: Please state the recorded outcome for this compound: COCCn1c(=NC(=O)c2cc(Cl)sc2Cl)sc2cc(S(N)(=O)=O)ccc21
Response given: active

Challenge: // outcome(item) with item = N/C(=N\OC(=O)/C=C/c1ccccc1)c1cccnc1
Response given: active

Challenge: Per the records of this test, what outcome belongs to COc1cccc(C(=O)Nc2cc(Cl)c(O)c(Cl)c2)c1 ?
Response given: active

Challenge: Please share the test call associated with O=C(Nc1nc2c(Cl)cccc2s1)c1ccc([N+](=O)[O-])o1 .
Response given: active

Challenge: Per the assay record, what outcome was assigned to Nc1ccccc1N1C(=O)c2cccc3cccc(c23)C1=O ?
Response given: inactive

Challenge: Give the logged outcome of this assay for the following compound: O=C(Nc1ccccc1C(=O)N/N=C/c1ccco1)c1ccccc1
Response given: active

Challenge: Call for entry CC1CCc2c(cc(-c3ccccc3)n2-c2ccc(C(=O)NC(C)C)cc2)C1 (configuration not stated) :
Response given: inactive

Challenge: Name the outcome recorded for Cc1ccc2cc3c(NC(=O)c4ccco4)nn(C)c3nc2c1 in the assay.
Response given: active

Challenge: Which outcome did this test record for the compound O=C(O)c1ccc2c(=O)n3c(nc2c1)/C(=C/c1cccc(Cl)c1Cl)CC3 ?
Response given: inactive

Challenge: How did this test come out for O=C1Nc2cccnc2N(C(=O)CCl)c2ccccc21 ?
Response given: inactive

Challenge: Hey, what did the test say about COC(=O)c1ccc2nc(-c3cccc(Cl)c3)c(Cc3ccccc3OC)n2c1 ?
Response given: active

Challenge: Answer briefly: the call reported for CC(C)N(C(=O)COC(=O)c1ccccc1C(=O)c1ccc(Cl)c([N+](=O)[O-])c1)C(C)C in this assay.
Response given: inactive

Challenge: So what was the verdict on CCc1nc(Nc2cccc(F)c2)c2oc3ccccc3c2n1 in this test?
Response given: inactive

Challenge: Recorded test outcome, item O=S(=O)(c1ccc(F)cc1)c1snnc1-c1ccccc1
Response given: inactive

Challenge: Could you kindly confirm the outcome this assay logged for O=C(Nc1ccc(F)cc1)c1cc2ccccc2o1 ?
Response given: active

Challenge: # fetch the recorded call for O=C1c2cccc3cccc(c23)C(=O)N1Cc1ccco1 here
Response given: inactive

Challenge: Call for entry O=C(Nc1nnc(-c2ccccc2F)s1)C1CCCO1 (configuration not stated) :
Response given: active

Challenge: How was Nc1c(C(=O)c2ccc(Br)s2)oc2ccccc12 classified in this test?
Response given: active

Challenge: State the result this test recorded for COC(=O)c1ccc2nc(-c3ccco3)c(Cc3ccccc3)n2c1 .
Response given: active

Challenge: Hey, what did the test say about CS(=O)(=O)c1nc(S(=O)(=O)c2ccc(Cl)cc2)c(N2CCC3(CC2)OCCO3)s1 ?
Response given: inactive

Challenge: // return assay outcome for N/C(=N\OC(=O)c1cc(Cl)ccc1Cl)c1ccncc1
Response given: active

Challenge: Tell me the assay call for CC(=O)COc1ccc2c(c1C)O/C(=C\c1ccco1)C2=O please.
Response given: active

Challenge: Which outcome was entered for the compound COC(=O)c1cc(S(=O)(=O)C(C)C)c(S(C)=O)s1 (configuration not stated) in this test?
Response given: inactive

Challenge: Could you check what this test reported for O=C(Nc1nccs1)c1cc(-c2ccco2)nc2ccccc12 ?
Response given: active

Challenge: Write down the call the test reported for this compound. Item: O=C(Nc1ccc(F)cc1)c1sccc1SCc1cccc(C(F)(F)F)c1
Response given: inactive

Challenge: What outcome does the record of this test show for COc1cc(C=C(c2nc3ccccc3s2)c2nc3ccccc3s2)ccc1O ?
Response given: active

Challenge: # outcome recorded in this test, key = CC(/C=C/c1ccco1)=N\NC(=O)CNc1ccc2ccccc2c1
Response given: active

FYI, the data here is from PubChem BioAssay AID651597.
